test: chemical genetic growth profiling, strain panel (AID 1159580);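 also: tested at 20 µM; growth read once vehicle control cultures reached saturation at 30 °C; lower values mean less growth of the strain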; conditions: S. cerevisiae deletion strains, growth OD, locus YLR058C, strain SHM2
The campaign covered roughly 5,500 compounds. About 2,000 (36%) were called active. Roughly 18% stayed inconclusive and do not appear here. Rule as the data show it: active = normalized growth mostly below about 0.91 (no sharp cut-off); inconclusive = no clear call, values can overlap the other calls; inactive = mostly above about 0.92. This is one part of the list.
Outcomes you can answer with include only these: y (active), n (inactive)

Illustrative cases are given below, each with its answer.
{"MOLECULE": "COC(=O)[C@@]1(C)CCC[C@]2(C)c3ccc(O)c(C(C)C)c3CCC12 (some centres undefined)", "CLASS ASSIGNMENT": "y"}
{"MOLECULE": "CC(=O)O[C@@H]1CC2C(C)(C)C(=O)C=C[C@]2(C)C2CC[C@@]3(C)[C@H](c4ccoc4)OC(=O)[C@H]4O[C@]43[C@@]21C (some centres undefined)", "CLASS ASSIGNMENT": "n"}
{"MOLECULE": "C[C@@H]1O[C@@H](OC[C@H]2OC(Oc3c(-c4ccc(O)c(O)c4)oc4cc(O)cc(O)c4c3=O)[C@H](O)[C@@H](O)[C@@H]2O)[C@H](O)[C@H](O)[C@H]1O (some centres undefined)", "CLASS ASSIGNMENT": "n"}

Here's the next entry for you.
stdin: Recorded test call requested for CC(=O)Oc1ccc2c(c1C(C)C)CCC1C(C)(C)CCC[C@]21C (some centres undefined)
stdout: n
